- System: U2OS
- experimentalProtocol: Incucyte cell viability with U2OS; also: filed as whole numbers so only -1 and 0 and 1 occur
- Assay type: toxicity, cell-based
- assaySetup: human, 18 h, 10 µM, compound concentration 10 uM, replicate number 1, timepoint 18 hours
Listing of entries alongside the reported Growth Rate.
Give the figure only, with no unit attached.

Example entries begin here.
>  <testSmiles>
Cc1cn(-c2cc(NC(=O)c3ccc4c(c3)CN(c3cncnc3)C[C@@H]4C)cc(C(F)(F)F)c2)cn1

>  <Growth Rate>
0

$$$$
>  <testSmiles>
Cc1cc(C(=O)N2Cc3cnn(C)c3Nc3ccccc32)ccc1CNC(=O)N1CCC[C@H]1C(=S)N1CCCN(C)CC1

>  <Growth Rate>
0

$$$$
>  <testSmiles>
Oc1ccc(-c2nc3cc(O)cc(Br)c3o2)cc1

>  <Growth Rate>
1

$$$$
>  <testSmiles>
Cc1cc(NC(=O)Nc2ccc(N(C)C)cc2)c2cc(F)cc(F)c2n1

>  <Growth Rate>
0

$$$$
>  <testSmiles>
CCCn1c(=O)c2[nH]c(C34CC5CC(CC3C5)C4)nc2n(CCC)c1=O

>  <Growth Rate>
1

$$$$

Request the reported Growth Rate associated with CO[C@H]1/C=C/O[C@@]2(C)Oc3c(C)c(O)c4c(O)c(c(/C=N/N5CCN(C)CC5)c(O)c4c3C2=O)NC(=O)/C(C)=C\C=C\[C@H](C)[C@H](O)[C@@H](C)[C@@H](O)[C@@H](C)[C@H](OC(C)=O)[C@@H]1C
1

Request the reported Growth Rate associated with CN(C)C(=O)c1ccc(-c2cc(C(=O)N(C)C3CCCC3)no2)cc1O
1

Request the reported Growth Rate associated with COc1cc2c(cc1-c1c(C)noc1C)ncc1[nH]c(=O)n([C@H](C)c3ccccn3)c12
1
